Biological target: Interstitial collagenase (Homo sapiens, UniProt P03956)
Sequence (P03956 whole entry): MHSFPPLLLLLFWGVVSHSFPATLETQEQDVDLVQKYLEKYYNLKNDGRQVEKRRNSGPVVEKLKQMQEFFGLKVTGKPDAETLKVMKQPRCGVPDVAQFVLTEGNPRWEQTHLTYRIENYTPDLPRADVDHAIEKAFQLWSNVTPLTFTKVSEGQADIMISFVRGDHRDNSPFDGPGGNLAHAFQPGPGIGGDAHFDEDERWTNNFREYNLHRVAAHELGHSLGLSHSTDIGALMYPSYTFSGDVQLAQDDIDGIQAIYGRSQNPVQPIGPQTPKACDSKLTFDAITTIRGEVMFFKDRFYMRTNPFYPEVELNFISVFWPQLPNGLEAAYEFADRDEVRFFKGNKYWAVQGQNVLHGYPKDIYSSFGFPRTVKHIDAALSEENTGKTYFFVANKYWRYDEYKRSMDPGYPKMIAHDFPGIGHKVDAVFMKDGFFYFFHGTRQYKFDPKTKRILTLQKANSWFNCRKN
Experiment: In vitro inhibitory activity against recombinant matrix metalloprotease-1 was determined
pIC50: −log10 of the molar value.

Molecule	Target Under Test	pIC50
CCC(C)NC(=O)P(=O)(O)O (configuration not stated)	Interstitial collagenase (Homo sapiens, UniProt P03956)	4.40
CC(C)CNC(=O)P(=O)(O)O.NC1CCCCC1	Interstitial collagenase (Homo sapiens, UniProt P03956)	4.40
CCC(CC)NC(=O)P(=O)(O)O	Interstitial collagenase (Homo sapiens, UniProt P03956)	4.10
O=C(NCC1CCCCC1)P(=O)(O)O	Interstitial collagenase (Homo sapiens, UniProt P03956)	4.52
O=C(NCCc1ccccc1)P(=O)(O)O	Interstitial collagenase (Homo sapiens, UniProt P03956)	4.10
CCNC(=O)P(=O)(O)O [(ETHYLAMINO)CARBONYLPHOSPHONIC ACID]	Interstitial collagenase (Homo sapiens, UniProt P03956)	4.30
CCN(CC)C(=O)P(=O)(O)O	Interstitial collagenase (Homo sapiens, UniProt P03956)	4.52
CCCCNC(=O)P(=O)(O)O	Interstitial collagenase (Homo sapiens, UniProt P03956)	4.60
CCOP(=O)(O)C(=O)NC1CCCCC1	Interstitial collagenase (Homo sapiens, UniProt P03956)	5.82

====

Biological target: Interstitial collagenase (Homo sapiens, UniProt P03956)
Assay: In vitro inhibitory activity against recombinant matrix metalloprotease-1 was determined
Measurement Name: IC50

1. CNC(=O)P(=O)(O)O > 100 µM
2. CC(C)CCNC(=O)P(=O)(O)O.NC1CCCCC1 > 100 µM
3. O=C(NC1CCC1)P(=O)(O)O > 100 µM
